Type: physicochemical
Conditions: 40° C./75% RH, 1 w
Description: For each salt, approximately 5 mg compound was added into an 8 mL glass vial with a multi-hole aluminum foil cap, and kept at 60° C., 40° C./75% RH for 1 week. […] Appearance by visual observation were recorded followed by purity assessment and XPRD data collection on the residual solids.

compound	Final purity
COCC1(O)CCC2(C)C(CCC3C2CCC2(C)C(C(=O)Cn4ccnc4)CCC32)C1.O=C(O)C(O)C(O)C(=O)O (stereo not drawn) [L(+)-Tartrate (Form A)]	99.3
CCS(=O)(=O)O.COCC1(O)CCC2(C)C(CCC3C2CCC2(C)C(C(=O)Cn4ccnc4)CCC32)C1 (stereo not shown) [Ethanesulfonate (Form A)]	98.0
COCC1(O)CCC2(C)C(CCC3C2CCC2(C)C(C(=O)Cn4ccnc4)CCC32)C1.O=CC(O)C(O)C(O)C(O)C(=O)O (stereo not shown) [Glucuronate (Form A)]	98.0
COCC1(O)CCC2(C)C(CCC3C2CCC2(C)C(C(=O)Cn4ccnc4)CCC32)C1.Cc1ccc(S(=O)(=O)O)cc1 (stereo not shown) [Tosylate (Form A)]	99.5
COC[C@@]1(O)CC[C@@]2(C)[C@@H](CC[C@@H]3[C@@H]2CC[C@]2(C)[C@@H](C(=O)Cn4ccnc4)CC[C@@H]32)C1.O=S(=O)(O)O [Sulfate (Form A)]	97.5
COC[C@@]1(O)CC[C@@]2(C)[C@@H](CC[C@@H]3[C@@H]2CC[C@]2(C)[C@@H](C(=O)Cn4ccnc4)CC[C@@H]32)C1.O=P(O)(O)O [Phosphate (Form A)]	99.2
COC[C@@]1(O)CC[C@@]2(C)[C@@H](CC[C@@H]3[C@@H]2CC[C@]2(C)[C@@H](C(=O)Cn4ccnc4)CC[C@@H]32)C1.O=S(=O)(O)c1ccccc1 [Besylate (Form A)]	98.3
COC[C@@]1(O)CC[C@@]2(C)[C@@H](CC[C@@H]3[C@@H]2CC[C@]2(C)[C@@H](C(=O)Cn4ccnc4)CC[C@@H]32)C1.O=C(O)C(=O)O [Oxalate (Form A)]	98.4
COCC1(O)CCC2(C)C(CCC3C2CCC2(C)C(C(=O)Cn4ccnc4)CCC32)C1.O=S(=O)(O)CCO (stereo not shown) [Isethionate (Form A)]	98.5
COC[C@@]1(O)CC[C@@]2(C)[C@@H](CC[C@@H]3[C@@H]2CC[C@]2(C)[C@@H](C(=O)Cn4ccnc4)CC[C@@H]32)C1.O=C(O)CC(O)(CC(=O)O)C(=O)O [Compound 1 Citrate (Form B)]	98.3
COCC1(O)CCC2(C)C(CCC3C2CCC2(C)C(C(=O)Cn4ccnc4)CCC32)C1.O=S(=O)(O)c1ccc2ccccc2c1 (stereo not shown) [Napsylate (Form A)]	99.1
COC[C@@]1(O)CC[C@@]2(C)[C@@H](CC[C@@H]3[C@@H]2CC[C@]2(C)[C@@H](C(=O)Cn4ccnc4)CC[C@@H]32)C1.O=C(O)C(O)C(O)C(=O)O [L(+)-Tartrate (Form B)]	99.2
COCC1(O)CCC2(C)C(CCC3C2CCC2(C)C(C(=O)Cn4ccnc4)CCC32)C1.O=C(O)CC(O)C(=O)O [L-Malate (Form A)]	99.2
